Measured values drawn from ChEMBL document CHEMBL1152140 for this set.

Measurement protocol: Inhibition of potato LOX5 by enzyme immuno assay
Set-up: species or system Solanum tuberosum
pIC50: −log10 of the molar value.
Endpoint name: pIC50

1 = O=C(O)/C=C/c1ccc(O)c(O)c1
2 = CS(=O)(=O)c1ccc(-n2nc(C(F)(F)F)cc2-c2ccn(O)c(=O)c2)cc1
Enquiry: Endpoint returns whichever of 1 and 2 has the numerically higher pIC50. Reply with the label of the item you choose.
Return: 2
